Measured competition (percent), listed per entry for reference.
Molecular target: T1, Biotinylated CD96 antigen (human, UniProt P40200-2 22-503, limits assumed, biotinylated)
T1 sequence (looked up): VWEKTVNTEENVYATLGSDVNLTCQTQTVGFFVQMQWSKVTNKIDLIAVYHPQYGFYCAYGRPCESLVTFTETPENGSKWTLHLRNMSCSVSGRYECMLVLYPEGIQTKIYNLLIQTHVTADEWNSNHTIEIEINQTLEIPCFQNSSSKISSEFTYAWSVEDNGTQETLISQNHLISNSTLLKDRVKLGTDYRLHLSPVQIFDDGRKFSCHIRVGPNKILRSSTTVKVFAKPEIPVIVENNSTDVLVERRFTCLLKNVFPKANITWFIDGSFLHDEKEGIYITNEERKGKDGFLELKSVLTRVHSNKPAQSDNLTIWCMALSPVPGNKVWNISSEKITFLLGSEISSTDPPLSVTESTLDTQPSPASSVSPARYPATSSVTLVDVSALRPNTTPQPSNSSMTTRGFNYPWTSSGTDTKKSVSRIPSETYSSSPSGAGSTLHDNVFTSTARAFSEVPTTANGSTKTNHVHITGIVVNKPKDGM
Assay: competition ELISA, antibody B premixed with biotinylated CD96; competitor (coated antibody A): h1718-012
Report only the number, with the unit % understood.

binder: ch1720 (antibody, human IgG4 S228P, kappa, V domains shown, also called chimeric antibody corresponding to m1720) VH: EFQLQQSGPELVKPGASVKISCKASAYSLTDYNMNWVKQSNGKSLEWIGVINPSYGISSYNQKFKGKATLTVDQSSSTAYMHLNSLTSEDSAVYYCARQLRLPGYFDVWGTGTTVTVSS VL: DIKMTQSPSSKNASLGERVTITCKASQDINSYLNWFQQKPGKSPKTLIYRASRLVDGVPSRFSGSGSGQDYSLTISSLEYEDMGIYYCLKYDEFPYTFGGGTKLEIKR
value-units: %
competition (percent): 94.4
//
binder: h1721-003 (antibody, V domains shown, Only variable regions are tied to this name; also called M721-003) VH: EVTLKESGPVLVKPTETLTLTCTVSGFSLSSYGVNWIRQPPGKALEWLGVIWGDGSTNYHSALISRLTISKDTSKSQVVLTLTNMDPVDTATYYCAKNYFYGSRYGYAMDSWGQGTTVTVSS VL: DIQMTQSPSSLSASVGDRVTITCRASENIYSSLAWYQQKPGKAPKLLIYNAKTLIEGVPSRFSGSGSGTDFTLTISSLQPEDFATYYCQHHYGTPYTFGGGTKVEIK
value-units: %
competition (percent): 73.6
//
binder: h1718-012 (antibody, V domains shown, Only variable regions are tied to this name) VH: EVQLVQSGAEVKKPGASVKVSCKASGYTITDYNMNWVRQAPGQRLEWIGVINPSYGITDYNQNFKDRVTITVDTSASTAYMELSSLRSEDTAVYYCAIQLRLPGYFDVWGQGTTVTVSS VL: DIQMTQSPSSLSASVGDRVTITCKASQDINQYLNWFQQKPGKAPKTLIYRANRLVDGVPSRFSGSGSGQDYTLTISSLQPEDFATYYCLKYDEFPYTFGGGTKVEIK
value-units: %
competition (percent): 100
//
binder: h1719-014 (antibody, V domains shown, Only variable regions are tied to this name; also called M719-014) VH: EVTLKESGPVLVKPTETLTLTCTVSGFSLSSYGVSWVRQPPGKGLEWLGVIWGDGNTNYHSVLISRLTISKDTSKSQVVLTLTNMDPVDTATYYCAKNYYYGSRYGYPLDYWGQGTTVTVSS VL: DIQMTQSPSSVSASVGDRVTITCKATQDVGTAVAWYQQKPGKSPKLLIYWASTRHTGVPERFSGSGSGTDFTLTISSLQPEDFATYFCQQYGSSVLTFGGGTKVEIK
value-units: %
competition (percent): 44.3

Please find the next binder below.
Query h1722-010 (antibody, V domains shown, Only variable regions are tied to this name; also called M722-010) VH: EVQLVQSGAEVKKPGSSVKVSCKASGGTFSDYWMHWVRQAPGQGLEWIGMLHPNSGTTSFNEKFKIRVTITADKSTSTAYMELSSLRSEDTAVYYCASDYSGPFAYWGQGTLVTVSS VL: DIQLTQSPSSLSASVGDRVTITCSASSSVNYIHWYQQKPGKAPKRWIFDTSKLASGVPSRFSGSGSGTDYTLTISSLQPEDFATYYCQQWRSNPLTFGQGTKLEIK yields competition (percent) of -3.5

Values were extracted from patent US20200347130A1.
